- Test system: NCI-H2122
- EXPERIMENT: combination cScore with adagrasib (Bliss gap around IC50) (%PoC); higher = stronger additive effect
METRIC_NAME: combination cScore with adagrasib
Numbers only.

Cn1c(=O)n(-c2ccc(C(C)(C)C#N)cc2)c2c3cc(-c4cnc5ccccc5c4)ccc3ncc21 [NVP-BEZ235] + C=C(F)C(=O)N1CCN(c2nc(OC[C@@H]3CCCN3C)nc3c2CCN(c2cccc4cccc(Cl)c24)C3)C[C@@H]1CC#N :: 3.55

Ask: Quote combination cScore with adagrasib reported for Nc1cccc2c1CN(C1CCC(=O)NC1=O)C2=O (configuration not stated) [Lenalidomide] + C=C(F)C(=O)N1CCN(c2nc(OC[C@@H]3CCCN3C)nc3c2CCN(c2cccc4cccc(Cl)c24)C3)C[C@@H]1CC#N please.
Result: -12.8

// provenance: the supplement of paper PMC11424490
